The reported numbers originate from patent US10189826B2.

Test system: SREBP-2 transcriptional activity (SREBP2 cleavage) in HepG2_LSSprom cells
Test: Luciferase reporter driven by a SREBP-2 specific promoter in HepG2_LSSprom cells
Type: cell-based
Conditions: 24 h, 24 h treatment, HepG2_LSSprom cells; read-out: SREBP2 Cleavage (IC50 μM) 24 h
Classification field. Basis: IC50. Definitions: bin A = under 0.2 µM, bin B = from 0.2 µM up to 0.8 µM, bin C = 0.8 µM and over

1) CC(C)(C)C(=O)NC1CCN(C(=O)c2ccc(-c3csc(-c4ccnc(C(C)(C)C)c4)c3)c(Cl)c2)CC1 [Compound 76]	bin C
2) CC(C)(C)OC(=O)N1CCN(C(=O)c2ccc(-c3csc(-c4ccnc(C(C)(C)C)c4)c3)c(Cl)c2)CC1 [Compound 27]	bin B
3) CC(C)(C)OC(=O)N1CCCC(NC(=O)c2ccc(-c3csc(-c4ccnc(C(C)(C)C)c4)c3)c(Cl)c2)C1 (stereo not drawn) [Compound 71]	bin B
4) CC(C)(C)c1cc(-c2csc(-c3ccc(C(=O)N4CCC(F)(F)CC4)cc3Cl)c2)ccn1 [Compound 40]	bin A
5) CC(C)(C)c1cc(-c2cc(-c3ccc(C(=O)N4CCC[C@H](NCc5ccc(Cl)cc5)C4)cc3Cl)cs2)ccn1 [Compound 80b]	bin A
6) CC(C)CCn1nccc1-c1cc(-c2ccc(C(=O)N3CCOCC3)cc2Cl)cs1 [Compound 102]	bin B
7) CN(C(=O)OC(C)(C)C)C1CCCN(C(=O)c2ccc(-c3csc(-c4ccnc(C(C)(C)C)c4)c3)c(Cl)c2)C1 (stereo not drawn) [Compound 70]	bin A
8) CC(C)(C)c1cc(-c2csc(-c3ccc(C(=O)N4CCCc5ncccc54)cc3Cl)c2)ccn1 [Compound 97]	bin A
9) CC(C)(C)c1cc(-c2csc(-c3ccc(C(=O)N4CCCC(O)C4)cc3Cl)c2)ccn1 (stereo not drawn) [Compound 89]	bin A
10) Cc1cc(C)c(CNC(=O)c2ccc(-c3csc(-c4ccnc(C(C)(C)C)c4)c3)c(Cl)c2)c(=O)[nH]1 [Compound 53]	bin C
11) CC(C)(C)c1cc(-c2csc(-c3ccc(C(=O)N4CC[C@H](N)C4)cc3Cl)c2)ccn1 [Compound 96b]	bin B
12) CC(C)(C)c1cc(-c2cc(-c3ccc(C(=O)N4CCC(NS(C)(=O)=O)CC4)cc3Cl)cs2)ccn1 [Compound 59]	bin C
13) CC(C)(C)c1cc(-c2cc(-c3ccc(C(=O)Nc4ccc(F)cc4)cc3Cl)cs2)ccn1 [Compound 54]	bin B
14) CC(C)(C)C(=O)N1CCN(C(=O)c2ccc(-c3csc(-c4ccnc(C(C)(C)C)c4)c3)c(Cl)c2)CC1 [Compound 46]	bin C

* * *

Tested on: SREBP-2 transcriptional activity (SREBP2 cleavage) in HepG2_LSSprom cells
Test: Luciferase reporter driven by a SREBP-2 specific promoter in HepG2_LSSprom cells
Type: cell-based
Conditions: 24 h, 24 h treatment, HepG2_LSSprom cells; read-out: SREBP2 Cleavage (IC50 μM) 24 h
Result type: IC50

1) CC(C)(C)c1cc(-c2cc(-c3ccc(C(=O)NC4CCC4)cc3Cl)cs2)ccn1	> 3 µM
2) CC(C)(C)c1cc(-c2cc(-c3ccc(C(=O)N4CCNC(=O)C4)cc3Cl)cs2)ccn1	> 1 µM
3) CC(C)(C)c1cc(-c2cc(-c3ccc(C(=O)N4CCN5CCCC5C4)cc3Cl)cs2)ccn1 (stereo not drawn)	> 3 µM
